FYI, the data here is from ChEMBL document CHEMBL2407008.

- protocol: Inhibition of sheep brain tubulin polymerization by UV spectrophotometric analysis
- Design: species or system Ovis aries
pIC50: −log10 of the molar value.
property-name: pIC50

Requested read-out: pIC50. Entry: CCC1=C[C@@H]2CN(C1)C[C@H](C(=O)OCc1ccccc1)Cc1c([nH]c3ccccc13)[C@@](C(=O)OC)(c1cc3c(cc1OC)N(C)[C@H]1[C@@](O)(C(=O)OC)[C@H](OC(C)=O)[C@]4(CC)C=CCN5CC[C@]31[C@@H]54)C2
< 4.00

Now this one: CCOC(=O)[C@@H]1Cc2c([nH]c3ccccc23)[C@@](C(=O)OC)(c2cc3c(cc2OC)N(C)[C@H]2[C@@](O)(C(=O)OC)[C@H](OC(C)=O)[C@]4(CC)C=CCN5CC[C@]32[C@@H]54)C[C@@H]2C=C(CC)CN(C2)C1
< 4.00

Also CCC1=C[C@@H]2CN(/C=C(/C(=O)OCc3ccccc3)Cc3c([nH]c4ccccc34)[C@@](C(=O)OC)(c3cc4c(cc3OC)N(C)[C@H]3[C@@](O)(C(=O)OC)[C@H](OC(C)=O)[C@]5(CC)C=CCN6CC[C@]43[C@@H]65)C2)C1 , if possible.
< 4.00
